# LD50 at 24 h per record follows
# Protocol text: Acute toxicity on rats
# Format: in vivo
# Experimental context: rat, in vivo, iv, tail vein injection, deaths within 24 hours, confidence 95 %
Kindly provide the numeric value in mg/kg only, without the unit symbol.

Would you please look over these solved cases?
{"Compound": "COc1cc(C(=O)OCCNC(C)C)cc(OC)c1OC", "Units of measure": "mg/kg", "Result": 57}
{"Compound": "COc1cc(C(=O)OCCNC2CCCCC2)cc(OC)c1OC", "Units of measure": "mg/kg", "Result": 29}

Shifting focus to the compound that follows.
Please fill in: LD50 at 24 h reported for COc1cc(C(=O)OCCNC(C)c2ccccc2)cc(OC)c1OC (stereo not drawn) = 28
